Measured Tmax values are reported for all entries that follow.
Experiment Description: Pharmacokinetic assay, oral administration
Type: in vivo
Cond: rat, male SD rats, p.o. 5 mg/kg, plasma, formulation differs per row
Parameter Measured: Tmax (h)

INSERT INTO assay_data (molecule, reading) VALUES
  ('Cc1cc(Nc2ncc(Cl)c(Nc3ccccc3P(C)(C)=O)n2)ccc1N1CC2(CCC(NC3CC3)CC2)C1', 6),
  ('CN(C)C1CCC2(CC1)CN(c1ccc(Nc3ncc(Cl)c(Nc4ccccc4P(C)(C)=O)n3)cc1Cl)C2', 4),
  ('Cc1cc(Nc2ncc(Cl)c(Nc3ccccc3P(C)(C)=O)n2)ccc1N1CCC2(CC1)CC(N(C)C)C2', 6),
  ('CCN1CC2(C1)CN(c1ccc(Nc3ncc(Cl)c(Nc4ccccc4P(C)(C)=O)n3)cc1C)C2 [Comparative compound B, reference compound]', 2.75),
  ('CN(C)C1CC2(CCN(c3ccc(Nc4ncc(Cl)c(Nc5ccccc5P(C)(C)=O)n4)cc3Cl)CC2)C1', 4),
  ('CP(C)(=O)c1ccccc1Nc1nc(Nc2ccc(N3CCC4(CC3)CC(N)C4)c(Cl)c2)ncc1Cl', 2.08);

----------
Target Of Assay: Ba/F3-L858R/T790M/C797S (Homo sapiens, UniProt P00533, T790M/C797S/L858R, cells depend on it)
Sequence (P00533 whole entry T790M/C797S/L858R): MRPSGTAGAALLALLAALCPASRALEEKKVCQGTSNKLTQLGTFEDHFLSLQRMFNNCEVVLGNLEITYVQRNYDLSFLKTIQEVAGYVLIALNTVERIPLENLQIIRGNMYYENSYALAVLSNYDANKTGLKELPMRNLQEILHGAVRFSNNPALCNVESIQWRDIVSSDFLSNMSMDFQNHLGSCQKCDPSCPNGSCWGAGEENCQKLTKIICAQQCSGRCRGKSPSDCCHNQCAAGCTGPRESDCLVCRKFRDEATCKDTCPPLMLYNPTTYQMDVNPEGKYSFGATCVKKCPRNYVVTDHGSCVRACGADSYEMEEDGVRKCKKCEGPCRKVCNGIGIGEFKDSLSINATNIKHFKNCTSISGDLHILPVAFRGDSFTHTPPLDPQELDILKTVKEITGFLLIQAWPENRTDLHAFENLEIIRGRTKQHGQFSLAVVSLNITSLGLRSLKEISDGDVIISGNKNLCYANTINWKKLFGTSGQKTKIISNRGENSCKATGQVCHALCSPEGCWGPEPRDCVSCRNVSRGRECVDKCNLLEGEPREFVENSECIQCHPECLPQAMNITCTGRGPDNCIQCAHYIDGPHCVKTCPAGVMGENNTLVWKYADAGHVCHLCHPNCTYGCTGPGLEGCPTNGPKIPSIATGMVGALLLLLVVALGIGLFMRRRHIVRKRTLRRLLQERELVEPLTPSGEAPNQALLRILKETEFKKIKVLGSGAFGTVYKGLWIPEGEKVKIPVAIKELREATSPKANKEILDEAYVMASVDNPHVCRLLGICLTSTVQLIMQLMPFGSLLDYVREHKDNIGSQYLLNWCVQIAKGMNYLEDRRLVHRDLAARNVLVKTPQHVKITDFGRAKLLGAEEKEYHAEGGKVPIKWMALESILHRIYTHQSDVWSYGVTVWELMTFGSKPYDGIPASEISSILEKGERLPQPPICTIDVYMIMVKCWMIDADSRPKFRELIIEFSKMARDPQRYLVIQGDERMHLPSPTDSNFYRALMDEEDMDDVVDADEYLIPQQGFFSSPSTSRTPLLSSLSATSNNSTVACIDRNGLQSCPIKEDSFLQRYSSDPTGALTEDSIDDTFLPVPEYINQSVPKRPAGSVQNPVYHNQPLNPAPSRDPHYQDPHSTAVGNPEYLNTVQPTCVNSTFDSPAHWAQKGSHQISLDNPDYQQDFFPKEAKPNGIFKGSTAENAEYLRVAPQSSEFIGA
Experiment Description: Ba/F3-L858R/T790M/C797S cells proliferation assay (CellTiter Glo)
Format: cell-based
Cond: cell proliferation, 72 h, numeric values; read-out: Ba/F3-L858R/T790M/C797S IC50
Parameter Measured: GI50 (µM)

INSERT INTO assay_data (smiles_code, units_text, reading) VALUES
  ('CP(C)(=O)c1ccccc1Nc1nc(Nc2ccc(N3CCC4(CC3)CC(N)C4)c(F)c2)ncc1Cl', 'µM', 0.0329),
  ('CP(C)(=O)c1ccccc1Nc1nc(Nc2ccc(N3CCC4(CC3)CC(N)C4)c(Cl)c2)ncc1Cl', 'µM', 0.0173),
  ('CN(C)C1CCC2(CC1)CN(c1ccc(Nc3ncc(Cl)c(Nc4ccccc4P(C)(C)=O)n3)cc1Cl)C2', 'µM', 0.0247);

----------
Target Of Assay: Ba/F3-L858R/T790M/C797S (Homo sapiens, UniProt P00533, T790M/C797S/L858R, cells depend on it)
Experiment Description: Ba/F3-L858R/T790M/C797S cells proliferation assay (CellTiter Glo)
Format: cell-based
Cond: cell proliferation, 72 h, class symbols; read-out: Ba/F3-L858R/T790M/C797S IC50
Parameter Measured: GI50

INSERT INTO assay_data (smiles_code, parameter_measured, reading) VALUES
  ('COc1cnc(Nc2ccc(N3CC4(CC(N)C4)C3)c(C)c2)nc1Nc1ccccc1P(C)(C)=O', 'GI50', '> 50 nM'),
  ('CN(C)C1CCC2(CC1)CN(c1ccc(Nc3ncc(Cl)c(Nc4ccccc4P(C)(C)=O)n3)cc1)C2', 'GI50', '≤ 10 nM'),
  ('CN(C)C1CCC2(CC1)CN(c1ccc(Nc3ncc(Cl)c(Nc4ccccc4P(C)(C)=O)n3)cc1C1CC1)C2', 'GI50', '10 to 50 nM'),
  ('CN(C)C1CC2(CCN(c3ccc(Nc4nccc(Nc5ccccc5P(C)(C)=O)n4)cc3Cl)CC2)C1', 'GI50', '> 50 nM'),
  ('CP(C)(=O)c1ccccc1Nc1nc(Nc2ccc(N3CCC4(CC3)CC(NC3CCCC3)C4)c(Cl)c2)ncc1Cl', 'GI50', '10 to 50 nM'),
  ('CNC1CC2(CCN(c3ccc(Nc4ncc(Cl)c(Nc5ccccc5P(C)(C)=O)n4)cc3Cl)CC2)C1', 'GI50', '10 to 50 nM');
